All values here come from paper PMC10397247.

Target: T1, 4H483-AA
T1 chain: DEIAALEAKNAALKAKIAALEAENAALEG
Assay: two-hybrid library CCmax;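 note: natural log of median RNA to DNA barcode read ratio; higher means stronger binding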
Conditions: mean of both orientations
result_type: interaction score

| binder | interaction score |
| --- | --- |
| DKNAALKAEIAALEAEIAALKAENAALEG [4H3595-AA] | -1.8 |
| DKIAALKAKNAALKAKIAALKAEIAALEG [4H3049-AA] | -1.48 |
| DEIAALEAKNAALEAKNAALKAKIAALKG [4H446-AA] | -2.13 |
| DKNAALKAKNAALEAEIAALEAEIAALEG [4H3969-AA] | -1.99 |

P. DENAALEAENAALKAKIAALKAEIAALEG [4H1257-AA]
Q. DKIAALKAENAALKAENAALEAKIAALKG [4H2774-AA]
Between P and Q , which one shows the smaller interaction score number? Pick one; state its label.
P
(P: -1.91, Q: -1.21)
